Catalogue of compounds with associated pIC50
- TARGET SYSTEM: PI3K α (Homo sapiens, UniProt P42336)
- Construct: purchased Upstate
- Sequence (P42336 whole entry): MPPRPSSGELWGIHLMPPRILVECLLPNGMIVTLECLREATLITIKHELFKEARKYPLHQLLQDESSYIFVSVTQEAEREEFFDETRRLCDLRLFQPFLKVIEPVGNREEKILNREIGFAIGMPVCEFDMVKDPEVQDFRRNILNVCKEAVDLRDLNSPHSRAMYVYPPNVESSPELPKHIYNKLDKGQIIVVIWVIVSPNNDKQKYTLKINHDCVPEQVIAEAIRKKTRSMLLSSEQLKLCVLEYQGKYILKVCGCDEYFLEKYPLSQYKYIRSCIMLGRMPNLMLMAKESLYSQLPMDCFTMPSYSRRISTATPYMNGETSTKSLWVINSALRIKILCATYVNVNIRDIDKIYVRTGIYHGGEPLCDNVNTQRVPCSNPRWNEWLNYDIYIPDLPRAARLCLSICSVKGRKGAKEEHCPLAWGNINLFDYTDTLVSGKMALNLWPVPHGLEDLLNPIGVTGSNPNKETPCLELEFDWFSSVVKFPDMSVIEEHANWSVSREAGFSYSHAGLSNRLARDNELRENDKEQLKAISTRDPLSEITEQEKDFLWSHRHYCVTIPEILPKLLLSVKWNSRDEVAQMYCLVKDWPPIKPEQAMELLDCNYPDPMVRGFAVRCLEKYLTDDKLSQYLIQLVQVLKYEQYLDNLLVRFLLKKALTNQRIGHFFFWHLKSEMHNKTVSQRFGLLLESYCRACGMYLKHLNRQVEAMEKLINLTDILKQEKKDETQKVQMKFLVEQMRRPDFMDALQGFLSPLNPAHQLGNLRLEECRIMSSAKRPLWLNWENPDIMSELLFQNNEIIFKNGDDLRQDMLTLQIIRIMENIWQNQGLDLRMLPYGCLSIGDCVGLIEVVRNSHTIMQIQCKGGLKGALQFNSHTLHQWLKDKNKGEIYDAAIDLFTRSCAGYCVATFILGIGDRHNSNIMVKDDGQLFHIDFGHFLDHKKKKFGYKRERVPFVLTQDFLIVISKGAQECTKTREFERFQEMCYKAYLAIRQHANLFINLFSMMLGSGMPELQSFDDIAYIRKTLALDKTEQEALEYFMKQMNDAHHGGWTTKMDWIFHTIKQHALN
- Sequence (P27986 whole entry partner): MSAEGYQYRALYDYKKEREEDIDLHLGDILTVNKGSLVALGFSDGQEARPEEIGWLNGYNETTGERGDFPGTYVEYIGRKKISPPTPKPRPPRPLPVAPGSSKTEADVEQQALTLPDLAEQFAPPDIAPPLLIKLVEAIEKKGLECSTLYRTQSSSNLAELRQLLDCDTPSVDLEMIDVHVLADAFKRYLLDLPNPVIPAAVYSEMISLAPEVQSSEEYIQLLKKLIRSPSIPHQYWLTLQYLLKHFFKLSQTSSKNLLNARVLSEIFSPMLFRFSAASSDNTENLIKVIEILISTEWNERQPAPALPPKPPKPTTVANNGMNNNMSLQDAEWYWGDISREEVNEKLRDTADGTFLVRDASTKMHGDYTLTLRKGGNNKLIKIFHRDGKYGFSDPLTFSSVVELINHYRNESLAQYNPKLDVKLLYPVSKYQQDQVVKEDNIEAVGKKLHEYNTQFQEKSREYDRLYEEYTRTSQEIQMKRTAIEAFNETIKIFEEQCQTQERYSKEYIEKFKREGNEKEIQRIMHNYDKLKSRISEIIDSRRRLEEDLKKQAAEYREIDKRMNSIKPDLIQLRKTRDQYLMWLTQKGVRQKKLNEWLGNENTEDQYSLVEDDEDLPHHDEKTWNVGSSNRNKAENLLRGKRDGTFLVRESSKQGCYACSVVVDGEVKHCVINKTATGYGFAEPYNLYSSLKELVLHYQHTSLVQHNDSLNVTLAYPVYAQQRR
- ASSAY REMARKS: PI 3-Kinase HTRF inhibition assay, PI3K α
- Type: biochemical
- CONDITIONS USED: in vitro; read-out: PI3K α IC50
pIC50: −log10 of the molar value.

Use these answered entries as a reference point.
GIVEN SMILES | RESULT
Nc1nc2cc(-c3ccc4ncc(N5CCOCC5)cc4n3)ccc2o1 | > 7.00
C[C@@H]1COCCN1C1CN(c2cnc3ccc(-c4ccc5oc(N)nc5c4)nc3c2)C1 | > 7.00
Nc1nc2cc(-c3cnc4ccc(N5CCOCC5)nc4c3)ccc2o1 | > 5.00

(Q) // returns reported pIC50 for input `Nc1nc2cc(-c3ccc4ncc(C5=CCOCC5)nc4n3)ccc2o1`
(A) > 7.00

(Q) Could you do the same for `C[C@H]1COCCN1c1cnc2ccc(-c3ccc4oc(N)nc4c3)nc2n1` , please?
(A) > 7.00

====

// IC50 collected for PI3K γ (Homo sapiens)

Reference set (5 entries):
COMPOUND | TARGET SYSTEM | IC50
Nc1nc2cc(-c3ccc4ncc(N5CC(N6C7CCC6COC7)C5)nc4n3)ccc2o1 | PI3K γ (Homo sapiens) | > 10 µM
CN1CC2CN(c3cnc4ccc(-c5ccc6oc(N)nc6c5)nc4c3)CC2C1 (centres unmarked) | PI3K γ (Homo sapiens) | < 1 µM
CCN1CCN(C2CN(c3cnc4ccc(-c5ccc6oc(N)nc6c5)nc4c3)C2)CC1 | PI3K γ (Homo sapiens) | < 10 µM
NCC(=O)N1CCN(c2cnc3ccc(-c4ccc5oc(N)nc5c4)nc3n2)CC1 | PI3K γ (Homo sapiens) | < 10 µM
CCOC(=O)N1CC=C(c2cnc3ccc(-c4ccc5oc(N)nc5c4)nc3n2)CC1 | PI3K γ (Homo sapiens) | < 0.1 µM

(Q) Look up IC50 for this compound: `Nc1nc2cc(-c3ccc4ncc(N5CC(N6C7CCC6COC7)C5)cc4n3)ccc2o1`
(A) < 1 µM

(Q) Likewise for `CCOC(=O)N1CCN(c2cnc3ccc(-c4ccc5oc(N)nc5c4)nc3n2)CC1` ?
(A) < 1 µM

(Q) Cool, now `Nc1nc2cc(-c3ccc4ncc(N5CCN(C(=O)C6(N)CC6)CC5)nc4n3)ccc2o1`
(A) < 0.1 µM

====

Entries and their measured pIC50 follow.
- TARGET SYSTEM: PI3K δ (Homo sapiens)
- Construct: purchased Upstate
- ASSAY REMARKS: PI 3-Kinase HTRF inhibition assay, PI3K δ
- Type: biochemical
- CONDITIONS USED: in vitro; read-out: PI3K δ IC50
pIC50: −log10 of the molar value.

Known pIC50 results, listed for orientation:
COMPOUND | TARGET SYSTEM | pIC50
CN1CCN(C2CN(c3ccc4ncc(-c5ccc6oc(N)nc6c5)cc4n3)C2)CC1 [Compound 84] | PI3K δ (Homo sapiens) | < 5.00
Nc1nc2cc(-c3ccc4ncc(N5CC(N6C7CCC6COC7)C5)nc4n3)ccc2o1 [Compound 51] | PI3K δ (Homo sapiens) | < 5.00
Nc1nc2cc(-c3ccc4nc(N5CCOCC5)cnc4n3)ccc2o1 [Compound 7] | PI3K δ (Homo sapiens) | < 5.00
C[C@H](N)C(=O)N1CCN(c2cnc3ccc(-c4ccc5oc(N)nc5c4)nc3c2)CC1 [Compound 38] | PI3K δ (Homo sapiens) | > 6.00
C[C@H]1CN(C2CN(c3cnc4ccc(-c5ccc6oc(N)nc6c5)nc4c3)C2)CCN1 [Compound 54] | PI3K δ (Homo sapiens) | > 6.00
CN1CCN(C2CN(c3cnc4ccc(-c5ccc6nc(N)[nH]c6c5)nc4c3)C2)CC1 [Compound 88] | PI3K δ (Homo sapiens) | < 5.00

(Q) Bench note: what pIC50 did CCN1CCN(C2CN(c3cnc4ccc(-c5ccc6oc(N)nc6c5)nc4n3)C2)CC1 [Compound 76] show?
(A) > 5.00

(Q) Can you check Nc1nc2cc(-c3ccc4ncc(N5CCNC(=O)C5)nc4n3)ccc2o1 [Compound 29] next?
(A) > 5.00

====

- TARGET SYSTEM: PI3K α (Homo sapiens)
- Construct: purchased Upstate
- ASSAY REMARKS: PI 3-Kinase HTRF inhibition assay, PI3K α
- Format: biochemical
- CONDITIONS USED: in vitro; read-out: PI3K α IC50
PROPERTY NAME: IC50

These solved cases illustrate the format of a correct answer.
COMPOUND | PROPERTY NAME | RESULT
Nc1nc2cc(-c3ccc4ncc(N5CC(N6CCN(CC7CC7)CC6)C5)cc4n3)ccc2o1 | IC50 | < 100 nM
Nc1nc2cc(-c3ccc4ncc(N5CC(N6CCN(CC7CC7)CC6)C5)nc4n3)ccc2o1 | IC50 | < 100 nM
CN1CCN(C2CN(c3cnc4ccc(-c5ccc6oc(N)nc6c5)nc4n3)C2)CC1 | IC50 | < 100 nM
C[C@H]1CN(C2CN(c3cnc4ccc(-c5ccc6oc(N)nc6c5)nc4n3)C2)CCN1C | IC50 | < 100 nM

(Q) Entry `Nc1nc2cc(-c3ccc4ncc(N5CC(N6C7CCC6COC7)C5)nc4n3)ccc2o1` : reported IC50 = ?
(A) < 10000 nM

(Q) Okay, and `CCN1CCN(C2CN(c3cnc4ccc(-c5ccc6nc(N)[nH]c6c5)nc4c3)C2)CC1` ?
(A) < 100 nM

(Q) Would you mind doing CN1CC2CN(c3cnc4ccc(-c5ccc6oc(N)nc6c5)nc4c3)CC2C1 (centres unmarked) as well?
(A) < 100 nM

(Q) How about `CN1CCN(c2ccc3ncc(-c4ccc5oc(N)nc5c4)cc3n2)CC1` ?
(A) < 10000 nM

(Q) Please give the result for `CN1CCN(c2cnc3ccc(-c4ccc5oc(N)nc5c4)nc3n2)CC1` too.
(A) < 1000 nM

(Q) // next record `C[C@H]1CN(c2cnc3ccc(-c4ccc5oc(N)nc5c4)nc3c2)CCN1`
(A) < 100 nM

(Q) Next compound up: `CCN1CCN(C2CN(c3cnc4ccc(-c5ccc6oc(N)nc6c5)nc4c3)C2)CC1`
(A) < 100 nM

(Q) Now the compound `C[C@@H]1CN(C2CN(c3cnc4ccc(-c5ccc6oc(N)nc6c5)nc4n3)C2)CCN1`
(A) < 100 nM

====

The molecules below have reported pIC50 for mTOR C (Homo sapiens).
pIC50: −log10 of the molar value.

Here are 2 molecules together with their reported answers.
MOLECULE | PROPERTY NAME | RESULT
CN1CC2CN(c3cnc4ccc(-c5ccc6oc(N)nc6c5)nc4c3)CC2C1 (stereo not drawn) [Compound 79] | pIC50 | < 5.00
CN1CC2CN(c3cnc4ccc(-c5ccc6oc(N)nc6c5)nc4n3)CC2C1 (stereo not drawn) [Compound 78] | pIC50 | < 5.00

(Q) Given the entry Nc1nc2cc(-c3ccc4ncc(N5C6CCC5COC6)nc4n3)ccc2o1 [Compound 19] , report its measured pIC50.
(A) < 5.00

====

Listed here: items and their measured pIC50.
- TARGET SYSTEM: PI3K δ (Homo sapiens, UniProt O00329)
- Construct: purchased Upstate
- Sequence (O00329 whole entry): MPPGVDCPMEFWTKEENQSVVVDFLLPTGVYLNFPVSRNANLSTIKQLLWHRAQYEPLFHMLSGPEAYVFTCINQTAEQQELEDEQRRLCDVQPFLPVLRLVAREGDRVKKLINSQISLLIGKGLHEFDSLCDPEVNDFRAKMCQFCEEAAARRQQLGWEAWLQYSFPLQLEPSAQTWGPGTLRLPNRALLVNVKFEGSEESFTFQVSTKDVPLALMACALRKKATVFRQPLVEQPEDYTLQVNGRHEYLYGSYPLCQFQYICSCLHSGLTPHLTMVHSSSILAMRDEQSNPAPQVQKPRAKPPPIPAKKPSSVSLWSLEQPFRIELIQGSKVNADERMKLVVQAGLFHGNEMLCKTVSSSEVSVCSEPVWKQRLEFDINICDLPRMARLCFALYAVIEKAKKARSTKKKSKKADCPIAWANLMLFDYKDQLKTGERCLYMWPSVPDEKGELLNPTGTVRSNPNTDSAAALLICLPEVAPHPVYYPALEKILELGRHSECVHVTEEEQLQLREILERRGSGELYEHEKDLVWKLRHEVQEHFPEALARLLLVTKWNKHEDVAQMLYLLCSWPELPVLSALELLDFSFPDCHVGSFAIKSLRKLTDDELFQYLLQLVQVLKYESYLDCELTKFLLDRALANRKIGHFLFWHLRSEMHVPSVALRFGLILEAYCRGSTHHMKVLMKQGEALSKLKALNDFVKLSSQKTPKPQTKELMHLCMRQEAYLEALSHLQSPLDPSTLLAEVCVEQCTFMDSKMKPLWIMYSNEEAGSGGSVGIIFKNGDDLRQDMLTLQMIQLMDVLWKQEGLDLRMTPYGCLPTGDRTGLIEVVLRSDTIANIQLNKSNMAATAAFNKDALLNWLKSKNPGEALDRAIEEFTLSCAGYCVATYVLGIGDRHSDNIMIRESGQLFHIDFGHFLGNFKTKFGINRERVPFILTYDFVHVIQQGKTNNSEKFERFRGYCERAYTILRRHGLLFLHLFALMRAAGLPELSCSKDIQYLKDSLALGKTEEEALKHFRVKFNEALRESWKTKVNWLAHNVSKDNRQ
- Sequence (P27986 whole entry partner): as the sequence (P27986 whole entry partner) above
- ASSAY REMARKS: PI 3-Kinase HTRF inhibition assay, PI3K δ
- Assay type: biochemical
- CONDITIONS USED: in vitro; read-out: PI3K δ IC50
pIC50: −log10 of the molar value.

GIVEN SMILES | TARGET SYSTEM | pIC50
CN1CCN(C2CN(c3cnc4ccc(-c5ccc6oc(N)nc6c5)nc4c3)C2)CC1 | PI3K δ (Homo sapiens, UniProt O00329) | > 6.00
CCOC(=O)N1CC=C(c2cnc3ccc(-c4ccc5oc(N)nc5c4)nc3n2)CC1 | PI3K δ (Homo sapiens, UniProt O00329) | > 5.00
C[C@H]1COCCN1C1CN(c2cnc3ccc(-c4ccc5oc(N)nc5c4)nc3c2)C1 | PI3K δ (Homo sapiens, UniProt O00329) | < 5.00

(Q) Hi! What's the reported pIC50 for `CC(C)N1CCN(C2CN(c3cnc4ccc(-c5ccc6nc(N)[nH]c6c5)nc4c3)C2)CC1` on PI3K δ (Homo sapiens, UniProt O00329)?
(A) < 5.00

(Q) Try this compound next: `Nc1nc2cc(-c3ccc4ncc(N5CC(N6CCN(CCO)CC6)C5)cc4n3)ccc2o1`
(A) > 6.00

(Q) Now this one: `Nc1nc2cc(-c3ccc4ncc(N5CC(N6CCN(CCO)CC6)C5)nc4n3)ccc2o1`
(A) > 5.00

(Q) Field entry: `Nc1nc2cc(-c3cnc4ccc(N5C6CCC5COC6)nc4c3)ccc2o1`
(A) < 5.00

(Q) Can you check `CC(C)N1CCN(c2cnc3ccc(-c4ccc5oc(N)nc5c4)nc3n2)CC1` next?
(A) > 5.00

(Q) Now the compound `CN1CCN(c2cnc3ccc(-c4ccc5oc(N)nc5c4)nc3c2)CC1`
(A) > 5.00

(Q) Now give it for `CC1(C)CN(C2CN(c3cnc4ccc(-c5ccc6oc(N)nc6c5)nc4n3)C2)CCO1` too.
(A) < 5.00

(Q) Subsequent entry: `Nc1nc2cc(-c3ccc4ncc(N5CC(N6CCN(C7CC7)CC6)C5)nc4n3)ccc2o1`
(A) > 5.00

The reported measurements were obtained from patent US9359352B2.
